Tested on: T-47D Tam2
procedureSummary: relative IC50 (midpoint of fitted logistic curve, plateau may be below 50% inhibition; CellTiter-Glo viability); higher = less potent
assayConditions: 4-OH-tamoxifen in medium 1 µM; 72 h
Where a name gives a salt, the structure may show the parent alone.
Decide by relative IC50: equal to or exceeding 0.6 µM means TRUE, less means FALSE.

Previously resolved entries follow.
CN[C@@H]1C[C@H]2O[C@@](C)([C@@H]1OC)n1c3ccccc3c3c4c(c5c6ccccc6n2c5c31)C(=O)N[C@H]4O: TRUE
CC(C)n1cnc2c(NCCc3ccc(O)cc3)nc(-c3csc4ccccc34)nc21: TRUE
CC[C@@H]1C(=O)OC[C@@H]1Cc1cncn1C: TRUE
CS(=O)(=O)OCCCCOS(C)(=O)=O: TRUE
Cn1cc(C2=C(c3cn(C4CCN(Cc5ccccn5)CC4)c4ccccc34)C(=O)NC2=O)c2ccccc21: TRUE
COc1c2occc2cc2ccc(=O)oc12: TRUE
Cc1cc(Nc2cc(CN3CCOCC3)c3nc(C)c(Cc4ccc(Cl)cc4F)n3n2)n[nH]1: TRUE
O=P(O)(O)C(O)(Cn1ccnc1)P(=O)(O)O: TRUE
C=CCn1c(=O)c2cnc(Nc3ccc(N4CCN(C)CC4)cc3)nc2n1-c1cccc(C(C)(C)O)n1: TRUE
CC[C@@]1(O)C(=O)OCc2c1cc1n(c2=O)Cc2cc3ccccc3nc2-1: FALSE

Request: Hi, just wondering whether CCC1(c2ccc(N)cc2)CCC(=O)NC1=O (stereo not drawn) [Aminoglutethimide] shows relative IC50 of 0.6 µM or higher.
Result: TRUE

Request: Hi, just wondering whether CCS(=O)(=O)c1cccc(-c2cc(C(=O)NC3CCN(C)CC3)c(C)c3[nH]c4ncc(C)cc4c23)c1 shows relative IC50 of 0.6 µM or higher.
Result: FALSE

Request: Hi, just wondering whether C[C@@H](Oc1cc(-c2cnn(C3CCNCC3)c2)cnc1N)c1c(Cl)ccc(F)c1Cl shows relative IC50 of 0.6 µM or higher.
Result: TRUE

Request: Hi, just wondering whether CS(=O)(=O)N1CCN(Cc2cc3nc(-c4cccc5[nH]ncc45)nc(N4CCOCC4)c3s2)CC1 shows relative IC50 of 0.6 µM or higher.
Result: FALSE

Request: Hi, just wondering whether O=C(Cc1ccc(-c2ccc(OCCN3CCOCC3)cc2)cn1)NCc1ccccc1 shows relative IC50 of 0.6 µM or higher.
Result: FALSE

Request: Hi, just wondering whether CCN(CC)CCOc1ccc(C(=C(Cl)c2ccccc2)c2ccccc2)cc1 [Clomifene citrate] shows relative IC50 of 0.6 µM or higher.
Result: TRUE

Request: Hi, just wondering whether Clc1ccc(C(c2ccccc2Cl)C(Cl)Cl)cc1 (stereo not drawn) shows relative IC50 of 0.6 µM or higher.
Result: TRUE

* * *

Consider the following molecules and their measured drug sensitivity score readings.
Test system: BT-474
procedureSummary: drug sensitivity score (DSS) (DSS (dimensionless)); higher = more sensitive; extreme values may be limits of the assay
assayConditions: 4-OH-tamoxifen in medium 1 µM; 72 h
Form: value (number only, do not type unit).

drug sensitivity score reading for CCC1(c2ccc(N)cc2)CCC(=O)NC1=O (stereo not drawn) [Aminoglutethimide] : 0.6

* * *

Test system: BT-474 Tam1
procedureSummary: drug sensitivity score (DSS) (DSS (dimensionless)); higher = more sensitive; extreme values may be limits of the assay
assayConditions: 4-OH-tamoxifen in medium 1 µM; 72 h
Consider the following compounds and their measured drug sensitivity score readings.
Form: value (number only, do not type unit).

COc1ccc(S(=O)(=O)Nc2cccnc2Nc2ccc(O)cc2)cc1: 6.57

drug sensitivity score reading for C=CC(=O)N1CCC[C@@H](n2nc(-c3ccc(Oc4ccccc4)cc3)c3c(N)ncnc32)C1 : 31.9

drug sensitivity score reading for CN[C@@H]1C[C@H]2O[C@@](C)([C@@H]1OC)n1c3ccccc3c3c4c(c5c6ccccc6n2c5c31)C(=O)N[C@H]4O : 13.4

drug sensitivity score reading for CNC(=O)c1ccc(N2C(=S)N(c3ccc(C#N)c(C(F)(F)F)c3)C(=O)C23CCC3)cc1F : 0.0464

* * *

System: BT-474 Tam1
procedureSummary: viability inhibition at highest dose (% inhibition); higher = more growth inhibition
assayConditions: 4-OH-tamoxifen in medium 1 µM; 72 h
Counter-ions that a name gives are not always drawn.
propertyLabel: viability inhibition at highest dose
Form: value (number only, do not type unit).

Example entries and their recorded answers appear below.
C#Cc1cccc(Nc2ncnc3cc(OCCOC)c(OCCOC)cc23)c1 [Erlotinib] (drug 10000 nM): 94.4
CS(=O)(=O)c1ccc(C(=O)Nc2ccc(Cl)c(-c3ccccn3)c2)c(Cl)c1 [Vismodegib] (drug 10000 nM): 18.7
C[C@@]1(C(=O)Nc2ccc(F)nc2)CCCN1c1nc(Nc2cc(C3CC3)n[nH]2)c2cccn2n1 (drug 10000 nM): 15.1

viability inhibition at highest dose reading for NC(=O)Nc1cc(-c2cccc(F)c2)sc1C(=O)N[C@H]1CCCNC1 [AZD7762] (drug 1000 nM) : -13.6

viability inhibition at highest dose reading for O=C(/C=C/c1cccnc1)NCCCCC1CCN(C(=O)c2ccccc2)CC1 [Daporinad (FK-866 HCl)] (drug 1000 nM) : 47.2

viability inhibition at highest dose reading for Oc1ncnc2[nH]ncc12 [Allopurinol] (drug 10000 nM) : -0.277

* * *

Tested on: T-47D
procedureSummary: viability inhibition at highest dose (% inhibition); higher = more growth inhibition
assayConditions: 4-OH-tamoxifen in medium 0 µM; 72 h
propertyLabel: viability inhibition at highest dose
Form: value (number only, do not type unit).

Field viability inhibition at highest dose (T-47D), entry Cc1c(N)nc([C@H](CC(N)=O)NC[C@H](N)C(N)=O)nc1C(=O)N[C@H](C(=O)N[C@H](C)[C@@H](O)[C@H](C)C(=O)N[C@H](C(=O)NCCc1nc(-c2nc(C(=O)NCCC[S+](C)C)cs2)cs1)[C@@H](C)O)[C@@H](OC1OC(CO)C(O)C(O)C1OC1OC(CO)C(O)C(OC(N)=O)C1O)c1cnc[nH]1 (stereo not given in full) [Bleomycin] (drug 10000 nM) : 19.4

Field viability inhibition at highest dose (T-47D), entry Cc1sc2c(c1C)C(c1ccc(Cl)cc1)=N[C@@H](CC(=O)OC(C)(C)C)c1nnc(C)n1-2 [(+)JQ1] (drug 10000 nM) : 34.3

* * *

Tested on: BT-474 Tam1
procedureSummary: viability inhibition at highest dose (% inhibition); higher = more growth inhibition
assayConditions: 4-OH-tamoxifen in medium 1 µM; 72 h
propertyLabel: viability inhibition at highest dose
Form: value (number only, do not type unit).

Example entries and their recorded answers appear below.
O=C1c2c(O)ccc(O)c2C(=O)c2c(NCCNCCO)ccc(NCCNCCO)c21 [Mitoxantrone] (drug 1000 nM): -23.8
C=CCN(/C=C1/C(=O)O[C@H](COC)[C@@]2(C)C1=C(O)C(=O)C1=C2[C@H](OC(C)=O)C[C@]2(C)C(=O)CC[C@@H]12)CC=C [Sonolisib (PX-866)] (drug 10000 nM): -5.08
COC1=CC(c2cc3ccccc3[nH]2)=N/C1=C\c1[nH]c(C)cc1C [Obatoclax (GX15-070)] (drug 10000 nM): 36.3
CN1CCN(c2ccc3nc(-c4c(N)c5c(F)cccc5[nH]c4=O)[nH]c3c2)CC1 [Dovitinib (CHIR-258)] (drug 10000 nM): -12.6
C[C@]1(c2nc3c(C(N)=O)cccc3[nH]2)CCCN1 [Veliparib (ABT-888)] (drug 10000 nM): 6.83

viability inhibition at highest dose reading for CC[C@@H]1C(=O)N(C)c2cnc(Nc3ccc(C(=O)NC4CCN(C)CC4)cc3OC)nc2N1C1CCCC1 [BI 2536] (drug 1000 nM) : 27.9

viability inhibition at highest dose reading for Oc1ncc(N(CCCl)CCCl)c(O)n1 [Uracil mustard] (drug 10000 nM) : 6.37

* * *

System: MCF-7
procedureSummary: viability inhibition at highest dose (% inhibition); higher = more growth inhibition
assayConditions: 4-OH-tamoxifen in medium 1 µM; 72 h
Returns: string. Value is 1.0 if measured viability inhibition at highest dose is below 20, and 0.0 if it is greater than or equal to it.

COc1cc2c(cc1O)CC[C@@H]1[C@@H]2CC[C@]2(C)[C@@H](O)CC[C@@H]12 [2-methoxyestradiol (Panzem)] (drug 10000 nM): 1.0
CCN1CCN(c2ccc(Nc3cc(N(C)C(=O)Nc4c(Cl)c(OC)cc(OC)c4Cl)ncn3)cc2)CC1 [NVP-BGJ398] (drug 1000 nM): 1.0
Cc1cn(-c2cc(NC(=O)c3ccc(C)c(Nc4nccc(-c5cccnc5)n4)c3)cc(C(F)(F)F)c2)cn1 [Nilotinib] (drug 10000 nM): 1.0
O=C(O)CC[C@H]1CC[C@@](c2cc(F)ccc2F)(S(=O)(=O)c2ccc(Cl)cc2)CC1 [MK-0752] (drug 1000 nM): 1.0
Cc1c(CN2CCN(C(=O)[C@H](C)O)CC2)sc2c(N3CCOCC3)nc(-c3cnc(N)nc3)nc12 [GDC-0980] (drug 10000 nM): 0.0
CO[C@H]1C[C@@H]2CC[C@@H](C)[C@@](O)(O2)C(=O)C(=O)N2CCCC[C@H]2C(=O)O[C@H]([C@H](C)C[C@@H]2CC[C@@H](OC(=O)C(C)(CO)CO)[C@H](OC)C2)CC(=O)[C@H](C)/C=C(\C)[C@@H](O)[C@@H](OC)C(=O)[C@H](C)C[C@H](C)/C=C/C=C/C=C/1C [Temsirolimus] (drug 100 nM): 0.0
C/C(=C\c1csc(C)n1)[C@@H]1C[C@@H]2O[C@]2(C)CCC[C@H](C)[C@H](O)[C@@H](C)C(=O)C(C)(C)[C@@H](O)CC(=O)N1 [Ixabepilone] (drug 1000 nM): 0.0
Cc1c2oc3c(C)ccc(C(=O)N[C@@H]4C(=O)N[C@H](C(C)C)C(=O)N5CCC[C@H]5C(=O)N(C)CC(=O)N(C)[C@@H](C(C)C)C(=O)O[C@@H]4C)c3nc-2c(C(=O)N[C@@H]2C(=O)N[C@H](C(C)C)C(=O)N3CCC[C@H]3C(=O)N(C)CC(=O)N(C)[C@@H](C(C)C)C(=O)O[C@@H]2C)c(N)c1=O [Dactinomycin] (drug 1000 nM): 0.0
COc1cc2c(Oc3ccc4[nH]c(C)cc4c3F)ncnc2cc1OCCCN1CCCC1 [Cediranib (AZD2171, Recentin)] (drug 1000 nM): 1.0

Request: Please check: viability inhibition at highest dose for CC/C(=C(\c1ccc(O)cc1)c1ccc(OCCN(C)C)cc1)c1ccccc1 [4-hydroxytamoxifen] (drug 10000 nM) , strictly under 20 or not?
Result: 0.0
